Entries annotated with measured GI50
system: HOP-92; experiment: NCI tumour cell line growth inhibition, 48 h
Calls of active or inactive are those of the source. Rule as the data show it: active = GI50 up to about 1.1 µM and inactive = higher.

Reference set, count: 3
| compound | GI50 |
| --- | --- |
| O=C1CCCCC2N(C(c3ccccc3)c3ccccc3)CC[C@@]12c1ccccc1.O=C1CCCC[C@H]2N(C(c3ccccc3)c3ccccc3)CC[C@@]12c1ccccc1 (some centres undefined) | 2.56 µM (inactive) |
| COc1c(-c2ccc3c(c2)OCO3)oc2cc3c(c(OC)c2c1=O)OCO3 [MELITERNATIN] | 15.3 µM (inactive) |
| COc1c2c(c3c(c1OC)c(=O)c1ccccc1n3C)OCO2 | > 100 µM (inactive) |

Given the compound BrC1=CC=C2NCCCCCC/N=C3\C=CC(Br)=CC=C3NCCCCCC/N=C\2C=C1 , what is its reported GI50? > 25.5 µM (inactive)
